Taken from patent US20200038513A1.

assay: Pharmacokinetics of intraperitoneal or intravenous injection in CD1 mice; format: in vivo; conditions: male, CD1, mouse, plasma, iv, 1 mg/kg, IV 1.0 mg/kg, CD1 mice plasma, 8 h; read-out: Mean
READOUT_KIND: concentration at 8 h (ng/mL)
Respond numerically; units are ng/mL and should not be typed.

## Task Using the record for "Cc1ncsc1-c1ccc(CNC(=O)[C@@H]2C[C@@H](O)CN2C(=O)[C@@H](NC(=O)CCOCCCOc2ccc(Nc3ncc(C(F)(F)F)c(NCc4cccc(N(C)S(C)(=O)=O)c4)n3)cc2)C(C)(C)C)cc1" , report its concentration at 8 h.
## Result 4.93

###

experiment: Pharmacokinetics of intraperitoneal or intravenous injection in CD1 mice; assay type: in vivo; settings: male, CD1, mouse, plasma, iv, 1 mg/kg, IV 1.0 mg/kg, CD1 mice plasma, 4 h; read-out: Conc. (ng/mL) Mouse 3
READOUT_KIND: concentration at 4 h (ng/mL)
Respond numerically; units are ng/mL and should not be typed.

## Task Using the record for Cc1ncsc1-c1ccc(CNC(=O)[C@@H]2C[C@@H](O)CN2C(=O)[C@@H](NC(=O)CCOCCCOc2ccc(Nc3ncc(C(F)(F)F)c(NCc4cccc(N(C)S(C)(=O)=O)c4)n3)cc2)C(C)(C)C)cc1 [Compound 103] , report its concentration at 4 h.
## Result 13

More entries:
## Task Using the record for Cc1ncsc1-c1ccc(CNC(=O)[C@@H]2C[C@@H](O)CN2C(=O)[C@@H](NC(=O)CCOCCOc2ccc(Nc3ncc(C(F)(F)F)c(NCc4cccc(N(C)S(C)(=O)=O)c4)n3)cc2)C(C)(C)C)cc1 [Compound 102] , report its concentration at 4 h.
## Result 2.09

## Task Cc1ncsc1-c1ccc(CNC(=O)[C@@H]2C[C@@H](O)CN2C(=O)[C@@H](NC(=O)COCCOc2ccc(Nc3ncc(C(F)(F)F)c(NCc4cccc(N(C)S(C)(=O)=O)c4)n3)cc2)C(C)(C)C)cc1 [Compound 100] ?
## Result 2.13

###

assay: Pharmacokinetics of intraperitoneal or intravenous injection in CD1 mice; type: in vivo; details: male, CD1, mouse, plasma, iv, 1 mg/kg, IV 1.0 mg/kg, CD1 mice plasma, 0.5 h; read-out: Conc. (ng/mL) Mouse 1
READOUT_KIND: concentration at 0.5 h (ng/mL)
Respond numerically; units are ng/mL and should not be typed.

These recorded examples may help you get a feel for the data.
## Task Using the record for "Cc1ncsc1-c1ccc(CNC(=O)[C@@H]2C[C@@H](O)CN2C(=O)[C@@H](NC(=O)CCOCCOc2ccc(Nc3ncc(C(F)(F)F)c(NCc4cccc(N(C)S(C)(=O)=O)c4)n3)cc2)C(C)(C)C)cc1" , report its concentration at 0.5 h.
## Result 23.7

## Task "Cc1ncsc1-c1ccc(CNC(=O)[C@@H]2C[C@@H](O)CN2C(=O)[C@@H](NC(=O)COCCCOc2ccc(Nc3ncc(C(F)(F)F)c(NCc4cccc(N(C)S(C)(=O)=O)c4)n3)cc2)C(C)(C)C)cc1" ?
## Result 20.9

## Task "Cc1ncsc1-c1ccc(CNC(=O)[C@@H]2C[C@@H](O)CN2C(=O)[C@@H](NC(=O)CCOCCCOc2ccc(Nc3ncc(C(F)(F)F)c(NCc4cccc(N(C)S(C)(=O)=O)c4)n3)cc2)C(C)(C)C)cc1" ?
## Result 140

More entries:
## Task Using the record for "Cc1ncsc1-c1ccc(CNC(=O)[C@@H]2C[C@@H](O)CN2C(=O)[C@@H](NC(=O)COCCOc2ccc(Nc3ncc(C(F)(F)F)c(NCc4cccc(N(C)S(C)(=O)=O)c4)n3)cc2)C(C)(C)C)cc1" , report its concentration at 0.5 h.
## Result 17.4
